biological target: T1, BSA (bovine, UniProt P02769); test: DELFIA ELISA, coated antigen;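 note: binding of antibody supernatants or protein-A purified antibodies to plate-coated antigen (3 µg/ml recombinant TCR or BSA), 1 h incubation at room temperature, DELFIA readout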
T1 construct: coated at 3 µg/ml; also called bovine serum albumin, control antigen of the DELFIA ELISA
T1 sequence (P02769 25-607 limits assumed): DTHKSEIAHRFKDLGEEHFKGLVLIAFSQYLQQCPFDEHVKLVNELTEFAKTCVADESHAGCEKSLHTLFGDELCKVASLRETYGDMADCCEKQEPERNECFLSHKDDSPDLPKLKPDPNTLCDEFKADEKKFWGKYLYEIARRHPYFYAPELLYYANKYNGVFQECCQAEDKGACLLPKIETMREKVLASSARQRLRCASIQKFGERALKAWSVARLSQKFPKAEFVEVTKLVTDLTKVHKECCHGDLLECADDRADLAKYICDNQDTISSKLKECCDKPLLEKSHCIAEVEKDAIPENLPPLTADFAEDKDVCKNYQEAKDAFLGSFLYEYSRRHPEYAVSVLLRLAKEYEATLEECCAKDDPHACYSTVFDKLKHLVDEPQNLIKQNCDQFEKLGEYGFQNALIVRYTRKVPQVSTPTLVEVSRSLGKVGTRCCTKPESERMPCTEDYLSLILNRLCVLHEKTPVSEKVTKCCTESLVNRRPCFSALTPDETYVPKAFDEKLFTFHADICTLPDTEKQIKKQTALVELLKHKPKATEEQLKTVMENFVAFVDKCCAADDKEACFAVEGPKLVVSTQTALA
Quantity: DELFIA ELISA response (FU)
Return type: number; implicit unit FU.

Query block: Value lookup for DELFIA ELISA response (FU); key = G4_1 (antibody, human IgG1, V domains shown, also called clone G4_1) VH: EVQLLESGGGVVQPGRPLRLSCAASGFTFSSYSMNWVRQAPGKGLEWVSSISSSSSYIYYADSVKGRFTISRDNSKNTLYLQMNSLRAEDTAVYYCAKGHWYFDLWGRGTLVTVSS VL: DIQMTQSPSSLSASVGDRVTITCQASQDISNYLNWYQQKPGKAPKLLIYDASNLETGVPSRFSGSGSGTDFTLTISSLQPEDFATYYCQQSYSTPVTFGPGTKVEIKR
Result block: 78
